experiment notes: Apparent permeability across apical to basolateral side of human Caco2 cells
Format: ADME, cell-based
test parameters: Caco-2
reported property: Papp A→B (×10⁻⁶ cm/s)
Expressed in ×10⁻⁶ cm/s, but write only the number.

Query string: What value of Papp A→B has been recorded for this entry: "N#Cc1cc(Cl)cc(-c2cc(-c3ccc(F)cn3)ncn2)c1"
Result string: 13

---

Measured Kp at 2 h, listed per entry.
experiment notes: Ratio of drug level in rat cerebrospinal fluid to plasma at 0.5 mg/kg, iv after 2 hrs
Type: ADME, organism-based, CSF/Plasma
test parameters: cerebrospinal fluid and plasma
Response field accepts a number only; no unit should be typed.

{"columns": ["line notation", "Kp at 2 h"],
 "data": [
  ["N#Cc1cc(C#N)cc(-c2cc(-c3ccc(F)cn3)ncn2)c1", 0.07]
]}

Now look at this one.
Query string: What value of Kp at 2 h has been recorded for this entry: "Cc1cc(C#N)cc(-c2cc(-n3cccn3)ncn2)c1"
Result string: 0.01

---

experiment notes: Ratio of drug level in rat cerebrospinal fluid to plasma at 0.5 mg/kg, iv after 0.5 hrs
Type: ADME, organism-based, CSF/Plasma
test parameters: cerebrospinal fluid and plasma
reported property: Kp at 0.5 h
Response field accepts a number only; no unit should be typed.

{"columns": ["line notation", "Kp at 0.5 h"],
 "data": [
  ["N#Cc1cc(Cl)cc(-c2cc(-c3ccccn3)ncn2)c1", 0.01]
]}

Query string: What value of Kp at 0.5 h has been recorded for this entry: "N#Cc1ccc(-c2cc(-c3cc(Cl)cc(C#N)c3)ncn2)nc1"
Result string: 0.01

Query string: What do you get for "N#Cc1cc(Cl)cc(-c2cc(-c3ccc(F)cn3)ncn2)c1" ?
Result string: 0.01

Query string: What do you get for "N#Cc1cc(C#N)cc(-c2cc(-c3ccc(F)cn3)ncn2)c1" ?
Result string: 0.04

Query string: What do you get for "Cc1cc(C#N)cc(-c2cc(-n3cccn3)ncn2)c1" ?
Result string: 0.02

---

Measured Kp at 0.5 h, listed per entry.
experiment notes: Ratio of drug level in rat brain to plasma at 0.5 mg/kg, iv after 0.5 hrs
Format: ADME, organism-based
test parameters: brain and plasma, read-out: BPR
Response field accepts a number only; no unit should be typed.

{"columns": ["line notation", "Kp at 0.5 h"],
 "data": [
  ["N#Cc1cc(Cl)cc(-c2cc(-c3ccccn3)ncn2)c1", 1.7]
]}

Query string: What value of Kp at 0.5 h has been recorded for this entry: "N#Cc1cc(C#N)cc(-c2cc(-c3ccc(F)cn3)ncn2)c1"
Result string: 5.5

---

experiment notes: Volume of distribution at steady state in rat at 0.5 mg/kg, iv
Assay type: ADME, organism-based
test parameters: in vivo, read-out: Vdss
reported property: Vd (L/kg)
Expressed in L/kg, but write only the number.

{"columns": ["line notation", "Vd [L/kg]"],
 "data": [
  ["Cc1cc(C#N)cc(-c2cc(-n3cccn3)ncn2)c1", 2.5]
]}

Query string: What value of Vd has been recorded for this entry: "N#Cc1ccc(-c2cc(-c3cc(Cl)cc(C#N)c3)ncn2)nc1"
Result string: 4.9

Query string: What do you get for "N#Cc1cc(Cl)cc(-c2cc(-c3ccccn3)ncn2)c1" ?
Result string: 4.4

Query string: What do you get for "N#Cc1cc(C#N)cc(-c2cc(-c3ccc(F)cn3)ncn2)c1" ?
Result string: 3.3

Query string: What do you get for "N#Cc1cc(Cl)cc(-c2cc(-c3ccc(F)cn3)ncn2)c1" ?
Result string: 3.7

---

experiment notes: Oral bioavailability in rat
Assay type: ADME, organism-based
test parameters: in vivo
reported property: bioavailability

Query string: What value of bioavailability has been recorded for this entry: "N#Cc1cc(Cl)cc(-c2cc(-c3ccc(F)cn3)ncn2)c1"
Result string: 100%

---

experiment notes: Ratio of drug level in rat brain to plasma at 0.5 mg/kg, iv after 2 hrs
Type: ADME, organism-based
test parameters: brain and plasma, read-out: BPR
reported property: Kp at 2 h
Response field accepts a number only; no unit should be typed.

{"columns": ["line notation", "Kp at 2 h"],
 "data": [
  ["N#Cc1cc(Cl)cc(-c2cc(-c3ccc(F)cn3)ncn2)c1", 2.7],
  ["N#Cc1cc(Cl)cc(-c2cc(-c3ccccn3)ncn2)c1", 1.9],
  ["N#Cc1cc(C#N)cc(-c2cc(-c3ccc(F)cn3)ncn2)c1", 8.2],
  ["N#Cc1ccc(-c2cc(-c3cc(Cl)cc(C#N)c3)ncn2)nc1", 6.7]
]}

Now look at this one.
Query string: What value of Kp at 2 h has been recorded for this entry: "Cc1cc(C#N)cc(-c2cc(-n3cccn3)ncn2)c1"
Result string: 1.9

---

experiment notes: Ratio of drug level in rat brain to plasma at 0.5 mg/kg, iv after 0.5 hrs
Type: ADME, organism-based
test parameters: brain and plasma, read-out: BPR
reported property: Kp at 0.5 h

Some molecules with recorded Kp at 0.5 h:
{"columns": ["line notation", "Kp at 0.5 h"],
 "data": [
  ["Cc1cc(C#N)cc(-c2cc(-n3cccn3)ncn2)c1", 1.7],
  ["N#Cc1cc(Cl)cc(-c2cc(-c3ccc(F)cn3)ncn2)c1", 2.9]
]}

Query string: What value of Kp at 0.5 h has been recorded for this entry: "N#Cc1ccc(-c2cc(-c3cc(Cl)cc(C#N)c3)ncn2)nc1"
Result string: 4.7

Source listed as ChEMBL document CHEMBL3603801.
